# targetDesc: tau (Homo sapiens, UniProt P10636)
# Sequence (P10636 623-695 limits assumed): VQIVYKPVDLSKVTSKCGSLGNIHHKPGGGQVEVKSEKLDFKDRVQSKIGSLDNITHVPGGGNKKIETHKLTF
# assayName: MCE Phenols Library screening, tau biosensor cell seeding assay (AvZ)
# Type: cell-based
# conditionInfo: Z score, replicate 1
assayMetric: Z repl 1
Numbers only.

Here are 3 compounds together with their reported answers.
COc1cc(CC(=O)O)ccc1O
-0.336
CCOC(=O)c1cc(O)c(O)c(O)c1 [Ethyl gallate]
-0.43
O=C(OCC1=C[C@@H](O)[C@@H]2C=CO[C@@H](O[C@@H]3O[C@H](CO)[C@@H](O)[C@H](O)[C@H]3O)[C@H]12)c1ccc(O)cc1 [Agnuside]
-0.301

For the 2 compounds below, give their Z repl 1 values.
1. COc1cc2c(cc1O)CC[n+]1cc3c(OC)c(OC)ccc3cc1-2.[Cl-] [Jatrorrhizine (chloride)]
2. Oc1ccc2[nH]ccc2c1 [5-Hydroxyindole]

Result:
0.505
-0.683

* * *

# targetDesc: tau (Homo sapiens)
# assayName: MCE Phenols Library screening, tau biosensor cell seeding assay (AvZ)
# Type: cell-based
# conditionInfo: average of raw data 1 and 2
assayMetric: av puncta
Numbers only.

Here are 2 compounds together with their reported answers.
COc1c2ccoc2c(O)c2oc(=O)ccc12 [8-Hydroxybergapten]
20281.2
COc1c(O)cc2c(c1O)[C@@H]1O[C@H](CO)[C@@H](O)[C@H](O)[C@H]1OC2=O [Bergenin]
18336.6

For the 7 compounds below, give their av puncta values.
1. COc1cc2c(=O)c3c(O)c([C@@H]4O[C@H](CO[C@@H]5OC[C@](O)(CO)[C@H]5O)[C@@H](O)[C@H](O)[C@H]4O)c(O)cc3oc2cc1O [Polygalaxanthone III]
2. CC(C)=CCc1c2ccoc2c(O)c2oc(=O)ccc12 [Alloimperatorin]
3. CC(C)=CCc1cc2c(=O)cc(-c3ccc(O)cc3)oc2cc1O [Licoflavone A]
4. O=c1cc(-c2ccc(O)cc2)oc2c([C@@H]3O[C@H](CO)[C@@H](O[C@@H]4O[C@H](CO)[C@@H](O)[C@H](O)[C@H]4O)[C@H](O)[C@H]3O)c(O)cc(O)c12 [Vitexin-4''-O-glucoside]
5. N[C@@H](Cc1c[nH]c2ccc(O)cc12)C(=O)O [L-5-Hydroxytryptophan]
6. O=C(CCc1ccc(O)cc1)c1c(O)cc(O[C@@H]2O[C@H](CO)[C@@H](O)[C@H](O)[C@H]2O)cc1O [Trilobatin]
7. O=C1c2c(O)cccc2[C@@H]([C@@H]2O[C@H](CO)[C@@H](O)[C@H](O)[C@H]2O)c2cc(CO)cc(O)c21 [Aloin B]

Result:
1: 20150.3; 2: 20292.7; 3: 28570.9; 4: 22113; 5: 19792.1; 6: 22862; 7: 20479

For the 5 compounds below, give their av puncta values.
1. CC[C@@]1(O)C(=O)OCc2c1cc1n(c2=O)Cc2cc3cc(O)ccc3nc2-1 [(S)-10-Hydroxycamptothecin]
2. O=c1cc(-c2ccc(O)cc2)oc2cc(O)c([C@@H]3O[C@H](CO)[C@@H](O)[C@H](O)[C@H]3O[C@@H]3O[C@H](CO)[C@@H](O)[C@H](O)[C@H]3O)c(O)c12 [Meloside A]
3. CCCCCCCCCCCCCCCc1cccc(O)c1C(=O)O [Anacardic Acid]
4. COc1cc(C)c2c(=O)cc(C[C@@H](C)O)oc2c1[C@@H]1O[C@H](CO)[C@@H](O)[C@H](O)[C@H]1OC(=O)/C=C/c1ccc(O)cc1 [Aloeresin D]
5. CCCOC(=O)c1cc(O)c(O)c(O)c1 [Propyl gallate]

Result:
[39581.6, 7038.23, 18346.5, 9774.18, 10013.9]

The reported measurements were obtained from paper PMC11784839.
